Tested on: HOP-62
TEST: NCI tumour cell line growth inhibition, 48 h
Active and inactive are the calls of the source. Rule as the data show it: active = GI50 up to about 1.1 µM and inactive = higher.
Outcomes: active, inactive

>  <COMPOUND>
COc1ccc(-c2nc(-c3ccc(OC)cc3)n(-c3ccccc3)n2)cc1

>  <GROUP>
inactive

$$$$
>  <COMPOUND>
O=C1CC[C@@]2(O)[C@H]3Cc4ccc(-c5ccccc5)c5c4[C@@]2(CCN3CC2CC2)[C@H]1O5

>  <GROUP>
inactive

$$$$
>  <COMPOUND>
CC1CC(=O)N(N(C)C)C(C#N)(C#N)C1(C#N)C#N (stereo not given)

>  <GROUP>
inactive

$$$$
>  <COMPOUND>
CCCC(C)n1c(C)nc2c1C(=O)c1ccccc1C2=O (stereo not given)

>  <GROUP>
inactive

$$$$
>  <COMPOUND>
CCN1C(=O)C(=CN)C(=O)N(CC)C1=O

>  <GROUP>
inactive

$$$$
>  <COMPOUND>
CO[C@H]1[C@H](O)[C@H](O[C@H]2CC[C@@]3(C)[C@H](CC[C@@H]4[C@@H]3CC[C@]3(C)[C@@H](C5=CC(=O)OC5)CC[C@]43O)C2)O[C@@H](C)[C@@H]1O [NERIIFOLIN]

>  <GROUP>
active

$$$$
>  <COMPOUND>
CNC=O

>  <GROUP>
inactive

$$$$
>  <COMPOUND>
CN1C(=O)N(C)C2(CCN(CCCCCCF)CC2)C1=O

>  <GROUP>
inactive

$$$$
>  <COMPOUND>
CC(=O)CSCc1ccccn1

>  <GROUP>
inactive

$$$$
>  <COMPOUND>
Cc1nn(C(=O)CC(=O)Nc2ccc(Cl)cc2)c(C)c1/N=N/c1ccccc1C(=O)O

>  <GROUP>
inactive

$$$$

###

The entries below come with measured GI50 values attached.
System: M14
TEST: NCI tumour cell line growth inhibition, 48 h
The source made the active and inactive calls. Cut-off read from the data, not from the text of the source: active = GI50 up to about 1.1 µM and inactive = higher.
ATTRIBUTE_MEASURED: GI50

>  <INPUT_SMILES>
OCCN(CCO)CCn1cnc2c(NCc3ccccc3)ncnc21

>  <ATTRIBUTE_MEASURED>
GI50

>  <MEASURED_RESULT>
> 100 µM (inactive)

$$$$
>  <INPUT_SMILES>
CS(=O)(=O)O.[Ag]

>  <ATTRIBUTE_MEASURED>
GI50

>  <MEASURED_RESULT>
3.17 µM (inactive)

$$$$
>  <INPUT_SMILES>
CC(C)(C)OC(=O)N1C(C2=COc3ccccc3O2)=COc2ccccc21

>  <ATTRIBUTE_MEASURED>
GI50

>  <MEASURED_RESULT>
27.7 µM (inactive)

$$$$
>  <INPUT_SMILES>
O=C(C/N=C(\CN(c1ccccc1)c1ccccc1)Oc1c(Cl)cc(Cl)cc1Cl)N1c2ccccc2Sc2ccccc21

>  <ATTRIBUTE_MEASURED>
GI50

>  <MEASURED_RESULT>
30.5 µM (inactive)

$$$$
>  <INPUT_SMILES>
O=C(CNc1ccccc1C(=O)O)Nn1cnc2ccc(S(=O)(=O)Nc3ccccc3C(=O)O)cc2c1=O

>  <ATTRIBUTE_MEASURED>
GI50

>  <MEASURED_RESULT>
> 100 µM (inactive)

$$$$

###

// values below are reported GI50
System: ACHN
TEST: NCI tumour cell line growth inhibition, 48 h
Calls of active or inactive are those of the source. Rule as the data show it: active = GI50 up to about 1.1 µM and inactive = higher.

>  <MOLECULE>
O=C=C=P(c1ccccc1)(c1ccccc1)c1ccccc1

>  <MEASUREMENT_TARGET>
ACHN

>  <GI50>
> 100 µM (inactive)

$$$$
>  <MOLECULE>
O=C1OC2C(O)C(=O)OC2C1O (stereo unspecified)

>  <MEASUREMENT_TARGET>
ACHN

>  <GI50>
> 100 µM (inactive)

$$$$
>  <MOLECULE>
CC(=O)N(C)C(C(=O)N1CC(C)CC1C(=O)N(C)C1C(=O)NC(CC(C)C)C(=O)N2CC(C)CC2C(=O)NC(CC(C)C)C(=O)N(C)C(C(C)C)C(=O)N2CCCC2C(=O)N(C)C(CC(C)C)C(=O)NCC(=O)OC1C)C(C)C (stereo unspecified)

>  <MEASUREMENT_TARGET>
ACHN

>  <GI50>
> 100 µM (inactive)

$$$$
>  <MOLECULE>
Cc1ccc([S@+]([O-])c2occc2C=O)cc1

>  <MEASUREMENT_TARGET>
ACHN

>  <GI50>
15.4 µM (inactive)

$$$$
>  <MOLECULE>
CCCCNC(=O)CCN(C(=O)O)S(=O)(=O)c1ccc(NC(=O)c2ccccc2)cc1

>  <MEASUREMENT_TARGET>
ACHN

>  <GI50>
> 100 µM (inactive)

$$$$
>  <MOLECULE>
O=C1CC[C@@]2(O)[C@H]3Cc4ccc(-c5ccccc5)c5c4[C@@]2(CCN3CC2CC2)[C@H]1O5

>  <MEASUREMENT_TARGET>
ACHN

>  <GI50>
20.6 µM (inactive)

$$$$
>  <MOLECULE>
COc1ccc2c(CCN)c(C(=O)O)[nH]c2c1

>  <MEASUREMENT_TARGET>
ACHN

>  <GI50>
> 100 µM (inactive)

$$$$
>  <MOLECULE>
C=CCOC(=O)C[C@H](NC(=O)[C@H](Cc1ccc(O)cc1)NCC(F)(F)F)C(=O)OCC=C

>  <MEASUREMENT_TARGET>
ACHN

>  <GI50>
> 100 µM (inactive)

$$$$
>  <MOLECULE>
C#CC[C@@H]1C(=O)N(Cc2ccc(OC)cc2)[C@@H](C(C)C)C(=O)N1Cc1ccc(OC)cc1

>  <MEASUREMENT_TARGET>
ACHN

>  <GI50>
45.4 µM (inactive)

$$$$
>  <MOLECULE>
NC(=O)/C(=N\NC(=O)c1cc2ccccc2cc1O)C1C(=O)N(c2ccccc2)N=C1N (stereo unspecified)

>  <MEASUREMENT_TARGET>
ACHN

>  <GI50>
29.9 µM (inactive)

$$$$
>  <MOLECULE>
C[C@@H]1CC[C@]2(C)C3(C)CC[C@]2(OC3=O)[C@@]12CC(c1ccoc1)OC2=O (stereo partly specified)

>  <MEASUREMENT_TARGET>
ACHN

>  <GI50>
22.4 µM (inactive)

$$$$
